# Test system: UO-31 renal
# assay.name: NCI tumour cell line growth inhibition, 48 h; in the data active = GI50 below about 0.43 µM; inactive = the rest
// one of active, inactive, no free text

# example entries with known answers
> print(dat)
                                   molecule  class.name
1  CC1(C)N=C(N)N=C(N)N1c1ccc(CCc2ccccc2)c(Cl)c1    inactive
2  COc1ccc(-c2cc(-c3ccc(Cl)cc3)c(C#N)c(=O)n2CCCCC(=O)Nc2ccccc2N)cc1    inactive
3  S=C(N/N=C/c1cc(Cl)cc(Cl)c1)NC12CC3CC(CC(C3)C1)C2    inactive
4  Nc1cc(N)c2nc(-c3ccccc3)c(Oc3ccc(F)cc3)nc2c1    inactive
5  C[C@]12CC[C@@H]3c4ccc(O)c([N+](=O)[O-])c4CC[C@H]3[C@@H]1CC[C@@H]2NS(=O)(=O)c1ccc(C(F)(F)F)cc1    inactive

Next item in the queue.
Check the results log: what was the call for CCN(c1ccc(CO)c(Cl)c1)C(C)c1ccc(F)cc1 (centres undefined) ?
inactive

###

# System: SNB-75 CNS
# assay.name: NCI tumour cell line growth inhibition, 48 h
Each record here notes measured TGI.

Before answering, review these 3 worked examples.
compound	recorded.measurement
CCOc1ccc(NCC2CC/C(=C\C=C\c3ccccc3)C2=O)cc1 (stereo not given)	59.9 µM
COC(=O)C1=CCON(c2ccccc2)C1c1ccccc1 (stereo not given)	> 100 µM
COC(=O)c1nc(NN)[nH]c(=O)c1CCCCCc1c(C(=O)OC)[nH]c(NN)cc1=O	> 100 µM

Now let's try a different one.
# return recorded TGI for input Nc1cc2c3c(cccc3c1)NC2=O
> 100 µM

###

# Test system: SNB-19 CNS
# assay.name: NCI tumour cell line growth inhibition, 48 h
observed.property: log10 of TGI (log10 of the value in µM)
Response schema: value (number) is log10 of TGI in units of µM.

Field: example entries. Status: answers known.
compound	recorded.measurement
COc1cc2c3c(cc(Cl)nc3c1OC)C(=O)C(=O)N2	1.63
O=P1(C(O)/C=C/c2ccccc2)N(Cc2ccccc2)[C@@H]2CCCC[C@H]2N1Cc1ccccc1 (stereo not given in full)	1.31
COC1/C=C/OC2(C)Oc3c(C)c(O)c4c(c3C2=O)C(=O)C=C(NC(=O)/C(C)=C\C=C\C(C)C(OC=O)C(C)C(O)C(C)C(OC(C)=O)C1C)C4=O (stereo not given)	1.44

Complete the entry with log10 of TGI for CC(C)c1cccc(C(C)C)c1NC(=O)C(=O)C(C(=O)c1ccccc1-c1ccccc1)C1OC(=O)c2ccccc21 (stereo not given)
1.60

Give the reported value of log10 of TGI for this record: CCN(c1ccc(CO)c(Cl)c1)C(C)c1ccc(F)cc1 (stereo not given)
1.48

Answer with the recorded log10 of TGI for the compound listed here: CCOC(=O)c1c(NC(=O)c2ccc(C(C)C)cc2)sc2c(CN(C)C)c(O)ccc12
0.72

Please give measured log10 of TGI of the following entry: N/C(=N\OC(=O)c1ccccc1)C(C(=O)NOC(=O)c1ccccc1)C1CCCCC1 (stereo not given)
1.59

Please supply the value of reported log10 of TGI for the item COc1cc2c3cc1Oc1c(OC)c(OC)cc4c1C(Cc1ccc(O)c(c1)Oc1ccc(cc1)CC3N(C)CC2)CN(C)C4 (stereo not given)
1.93
